assay: HoxA9-arrested leukemia cell differentiation promoters – flow cytometry, MLPCN library, primary screen (AID 624256); conditions: ER-HoxA9 myeloid progenitors, lysozyme-GFP differentiation, at 10 µM; measured here: differentiation confirmed by MAC1 staining, stronger effect = higher value;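 further: cells exposed to compound for four days before flow analysis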
Out of some 360,000 compounds screened, about 3,700 (1%) were called active. Roughly 2% stayed inconclusive and do not appear here. Many of the other results were omitted from the sample, so actives are more common in it than they were.
Classify by GFP+ MAC1+ double positive. Ranges: group 1 = under 1%, group 2 = from 1% up to 2%, group 3 = 2% and over

1) CC(=O)C1=CCC(c2ccccc2)N(S(=O)(=O)c2ccc(C)cc2)C1 (stereo not given)
group 2
2) CCc1nc2ccc(C(=O)NCc3ccc(OC)cc3)cn2c1N(CC)Cc1cccc(Br)c1
group 2
3) COC(=O)COc1ccc2c(c1C)O/C(=C\c1ccco1)C2=O
group 1

Query: Which category does the recorded GFP+ MAC1+ double positive put CC1(C(=O)NCc2ccccc2)CSCC(=O)N1CCCn1ccnc1 (stereo not given) in?
Reply: group 3

Query: Proceed to "c1nc(COc2nsnc2N2CCOCC2)cs1"
Reply: group 3

Query: Proceed to "O=C(O)COc1nsnc1N1CCOCC1"
Reply: group 1

Query: Proceed to "C[C@@H]1CN([C@@H](C)CO)C(=O)c2cc(NC(=O)C3CC3)ccc2O[C@H]1CN(C)C"
Reply: group 2

Query: Proceed to "CCN1C[C@@H]2[C@@H]3C(=O)N(C)C(=O)[C@@H]3[C@](C)(C1=O)N2C(=O)c1ccccc1"
Reply: group 3

Query: Proceed to "CN1C(=O)[C@H]2[C@@H](C3CC3)N3C(=O)CN(Cc4ccccc4)C(=O)[C@@]3(C)[C@H]2C1=O"
Reply: group 2

Query: Proceed to Cc1ccc(C)c(C(O)c2ncc(-c3cccc4ccccc34)[nH]2)c1 (stereo not given)
Reply: group 1
